Target or test system: GlcA(b1-3)GlcNAc
Measurement description: glycan array binding signal (z-score within array); higher = stronger binding
Study conditions: glycan notation: IUPAC condensed, linker removed
The sample as a whole holds a higher share of the strongest signals than the screen did.

- Binder: "FGFR2-Fc (protein) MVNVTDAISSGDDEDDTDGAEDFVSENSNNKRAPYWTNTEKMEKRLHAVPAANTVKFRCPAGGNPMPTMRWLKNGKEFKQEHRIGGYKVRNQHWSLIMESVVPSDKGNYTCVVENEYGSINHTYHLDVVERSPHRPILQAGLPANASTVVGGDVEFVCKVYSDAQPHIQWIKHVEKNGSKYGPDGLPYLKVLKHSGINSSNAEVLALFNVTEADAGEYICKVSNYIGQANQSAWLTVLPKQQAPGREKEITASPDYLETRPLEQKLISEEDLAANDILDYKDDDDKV"
  glycan array binding signal (z-score): -0.356
